assay: Pharmacokinetic properties after intravenous injection and intragastric administration; assay type: in vivo, mice; conditions: Sprague-Dawley, mouse, in vivo, po, 5 mg/kg
Parameter measured: Tmax
Units required after the number.

Give its Tmax value. Item: [2H]C([2H])([2H])C([2H])(c1cccc(-c2ncc(OCC3CCN(C)CC3)cn2)c1)n1nc(-c2cccc(C#N)c2)ccc1=O (stereo in doubt) [(R)-14]
4 h

These data points were gathered from patent US12258331B2.
